The following compounds each carry a recorded pIC50 for Fatty Acid Synthase Keto-reductase Domain (FASN KR) (Homo sapiens).
pIC50: −log10 of the molar value.
quantity.measured: pIC50

- O=C(C1CC1)N1CC[C@@H](CN2C(=O)C3(CCOCC3)N=C2c2ccc(-c3ccc4cccnc4c3)cc2)C1: 6.88
- O=C(C1CC1)N1CC[C@@H](CN2C(=O)C3(CCN(Cc4ccccc4)CC3)N=C2c2ccc(-c3ccc4[nH]ccc4c3)cc2)C1: 7.07
- Cc1cc(-c2ccc3cc(C#N)ccc3c2)ccc1C1=NC2(CC2)C(=O)N1CC1CN(C(=O)C2(C)CC2)C1: 7.18
- O=C(Nc1cccc(-c2ccc(C3=NC4(CC4)C(=O)N3C[C@@H]3CCN(C(=O)C4CC4)C3)c(F)c2)c1)C1CC1: 6.79
- O=C(N1CC[C@@H](CN2C(=O)C3(CC3)N=C2c2ccc(-c3ccc(Cl)cc3F)cc2)C1)C1(O)CC1: 7.13
- COC(=O)N1CC2(C1)N=C(c1ccc(-c3ccc4occc4c3)cc1)N(C[C@@H]1CCN(C(=O)[C@H]3CCCO3)C1)C2=O: 6.07

* * *

- target.under.test: hFASN enzyme (full length) (Homo sapiens, UniProt P49327)
- Construct: 10 μL hFASN enzyme (full length, 300 ng, purified in house); made in house
- Sequence (P49327 whole entry): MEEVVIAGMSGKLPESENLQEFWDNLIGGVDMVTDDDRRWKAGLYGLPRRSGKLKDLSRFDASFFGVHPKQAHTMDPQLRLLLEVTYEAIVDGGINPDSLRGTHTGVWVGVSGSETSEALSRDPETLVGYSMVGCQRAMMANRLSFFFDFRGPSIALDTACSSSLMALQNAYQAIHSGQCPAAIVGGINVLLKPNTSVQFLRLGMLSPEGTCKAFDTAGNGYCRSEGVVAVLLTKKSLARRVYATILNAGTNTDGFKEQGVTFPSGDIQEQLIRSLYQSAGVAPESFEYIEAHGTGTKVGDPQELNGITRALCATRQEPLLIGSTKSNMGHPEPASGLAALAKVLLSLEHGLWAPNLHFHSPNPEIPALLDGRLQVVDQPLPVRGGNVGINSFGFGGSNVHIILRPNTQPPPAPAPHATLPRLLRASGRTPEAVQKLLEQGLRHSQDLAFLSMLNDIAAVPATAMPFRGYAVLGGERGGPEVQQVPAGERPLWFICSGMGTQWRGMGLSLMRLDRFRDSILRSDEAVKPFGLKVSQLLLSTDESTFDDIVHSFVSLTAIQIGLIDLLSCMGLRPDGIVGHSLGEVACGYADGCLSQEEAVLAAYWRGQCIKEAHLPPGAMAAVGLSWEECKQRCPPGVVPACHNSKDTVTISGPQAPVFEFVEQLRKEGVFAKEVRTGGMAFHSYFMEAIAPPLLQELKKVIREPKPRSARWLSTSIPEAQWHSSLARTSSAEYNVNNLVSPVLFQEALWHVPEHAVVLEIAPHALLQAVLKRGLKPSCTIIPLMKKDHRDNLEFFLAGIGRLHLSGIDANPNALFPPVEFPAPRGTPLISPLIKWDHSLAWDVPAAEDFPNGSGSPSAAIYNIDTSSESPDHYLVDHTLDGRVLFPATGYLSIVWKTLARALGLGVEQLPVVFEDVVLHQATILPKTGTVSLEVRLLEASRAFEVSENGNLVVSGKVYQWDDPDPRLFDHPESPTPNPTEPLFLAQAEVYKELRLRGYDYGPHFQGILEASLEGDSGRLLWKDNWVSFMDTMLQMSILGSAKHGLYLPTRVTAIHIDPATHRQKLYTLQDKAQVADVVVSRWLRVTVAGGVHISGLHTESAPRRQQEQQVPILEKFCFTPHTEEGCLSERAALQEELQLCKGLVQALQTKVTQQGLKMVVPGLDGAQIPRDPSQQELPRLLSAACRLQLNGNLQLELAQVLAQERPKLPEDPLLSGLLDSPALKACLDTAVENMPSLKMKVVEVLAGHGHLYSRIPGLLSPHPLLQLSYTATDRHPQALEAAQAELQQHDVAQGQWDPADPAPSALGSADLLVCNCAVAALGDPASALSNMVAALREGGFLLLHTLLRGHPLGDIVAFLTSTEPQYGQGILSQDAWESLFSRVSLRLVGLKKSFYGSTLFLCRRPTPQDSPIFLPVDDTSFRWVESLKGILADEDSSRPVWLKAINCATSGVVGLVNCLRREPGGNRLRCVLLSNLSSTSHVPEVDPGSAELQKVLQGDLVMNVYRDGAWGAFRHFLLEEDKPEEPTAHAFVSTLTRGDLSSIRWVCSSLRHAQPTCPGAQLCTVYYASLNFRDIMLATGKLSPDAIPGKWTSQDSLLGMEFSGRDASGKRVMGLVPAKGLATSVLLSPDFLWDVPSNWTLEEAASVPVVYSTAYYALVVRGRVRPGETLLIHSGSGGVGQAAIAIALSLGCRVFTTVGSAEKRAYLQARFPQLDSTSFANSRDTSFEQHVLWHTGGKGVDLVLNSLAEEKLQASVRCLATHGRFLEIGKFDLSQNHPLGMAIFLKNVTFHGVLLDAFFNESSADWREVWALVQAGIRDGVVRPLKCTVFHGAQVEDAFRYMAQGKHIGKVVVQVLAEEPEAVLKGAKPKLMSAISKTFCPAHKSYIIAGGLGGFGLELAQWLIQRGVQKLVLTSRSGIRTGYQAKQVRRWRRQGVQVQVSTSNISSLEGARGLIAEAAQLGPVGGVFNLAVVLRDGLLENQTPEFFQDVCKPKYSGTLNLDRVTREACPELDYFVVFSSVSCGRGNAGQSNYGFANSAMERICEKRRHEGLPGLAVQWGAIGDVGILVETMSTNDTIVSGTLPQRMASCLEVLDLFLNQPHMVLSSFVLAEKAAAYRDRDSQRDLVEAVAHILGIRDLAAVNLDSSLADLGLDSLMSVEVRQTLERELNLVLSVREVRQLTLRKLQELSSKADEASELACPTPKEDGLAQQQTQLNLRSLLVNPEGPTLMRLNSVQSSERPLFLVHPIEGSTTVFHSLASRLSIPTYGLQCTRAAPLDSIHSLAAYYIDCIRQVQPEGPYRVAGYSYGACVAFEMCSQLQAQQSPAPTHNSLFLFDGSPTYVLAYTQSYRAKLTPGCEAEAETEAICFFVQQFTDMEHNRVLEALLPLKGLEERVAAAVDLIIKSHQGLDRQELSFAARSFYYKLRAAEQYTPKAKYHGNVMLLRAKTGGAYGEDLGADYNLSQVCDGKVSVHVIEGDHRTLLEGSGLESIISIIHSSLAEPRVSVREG
- assay.method.text: Fatty Acid Synthase (FASN) inhibition scintillation proximity assay
- Type: biochemical
- protocol.conditions: read-out: Human FASN pIC50 (converted)
quantity.measured: IC50

- N#Cc1ccc(-c2ccc(C3=NC4(CC4)C(=O)N3C[C@@H]3CCN(C(=O)C4CC4)C3)cc2)cc1: 97.7 nM
- O=C(C1CC1)N1CC[C@@H](CN2C(=O)C3(CCCC3)N=C2c2ccc(-c3ccc4[nH]c(=O)[nH]c4c3)cc2F)C1: 309 nM
- Cc1cc(C2=NC3(CC3)C(=O)N2CC2CN(C(=O)C3CC3)C2)ccc1-c1ccc2c(cnn2C)c1: ~10000 nM

* * *

- target.under.test: hFASN enzyme (full length) (Homo sapiens, UniProt P49327)
- Construct: 10 μL hFASN enzyme (full length, 300 ng, purified in house); made in house
- assay.method.text: Fatty Acid Synthase (FASN) inhibition scintillation proximity assay
- Format: biochemical
- protocol.conditions: read-out: Human FASN % inhibition @ 10 μM, 10 μM test compound
quantity.measured: inhibition at 10 µM (%)

* COC(=O)N1CC[C@@H](CN2C(=O)C3(CCOCC3)N=C2c2ccc(-c3ccc4c(cnn4C)c3)cc2)C1 | 35
* CC(C)C(=O)N1CCC2(CC1)N=C(c1ccc(-c3ccc(-c4cnn(C)c4)cc3)cc1)N(CC1CN(C(=O)C3CC3)C1)C2=O | 76
* CC(O)C(=O)N1CC[C@@H](CN2C(=O)C3(CCOCC3)N=C2c2ccc(-c3ccc4occc4c3)cc2)C1 (some centres unmarked) | 86
* COC(=O)N1CC[C@@H](CN2C(=O)C3(CCOCC3)N=C2c2ccc(-c3ccc4occc4c3)cc2)C1 | 44
* Cc1cc(-c2ccc3cc[nH]c3c2)ccc1C1=NC2(CC2)C(=O)N1C[C@@H]1CCN(C(=O)C2CC2)C1 | 103

* * *

- target.under.test: hFASN enzyme (full length) (Homo sapiens)
- Construct: 10 μL hFASN enzyme (full length, 300 ng, purified in house); made in house
- assay.method.text: Fatty Acid Synthase (FASN) inhibition scintillation proximity assay
- Assay type: biochemical
- protocol.conditions: read-out: Human FASN pIC50 (converted)
# key: entry, value: IC50
quantity.measured: IC50

* Cc1cc(-c2ccc3c(cnn3C)c2)ccc1C1=NC2(CC2)C(=O)N1CC1CN(C(=O)C2(O)CCC2)C1 [compound 796] | > 10 µM
* O=C1CCc2ccc(-c3ccc(C4=NC5(CC5)C(=O)N4C[C@@H]4CCN(C(=O)C5CC5)C4)cc3)cc2N1 [compound 809] | > 10 µM
* Cc1cc(Cl)c2ccc(-c3ccc(C4=NC5(CC5)C(=O)N4CC4CN(C(=O)C5(C)CC5)C4)c(C)c3)cc2n1 [compound 597] | ~4.27 µM
* O=C(C1CC1)N1CC[C@@H](CN2C(=O)C3(CC3)N=C2c2ccc(-c3cncc(Cl)c3)cc2)C1 [compound 802] | > 10 µM
* O=C(C1CC1)N1CCC(CN2C(=O)C3(CC3)N=C2c2ccc(-c3ccncc3)cc2)CC1 [compound 32] | > 10 µM

* * *

- target.under.test: hFASN enzyme (full length) (Homo sapiens, UniProt P49327)
- Construct: 10 μL hFASN enzyme (full length, 300 ng, purified in house); made in house
- assay.method.text: Fatty Acid Synthase (FASN) inhibition scintillation proximity assay
- Format: biochemical
- protocol.conditions: read-out: Human FASN pIC50 (converted)
quantity.measured: IC50

• O=C(C1CC1)N1CCC(CN2C(=O)C3(CC3)N=C2c2ccc(-c3ccc4ccncc4c3)cc2)CC1 [compound 25] = ~4.9 µM
• O=C(C1CC1)N1CC(CN2C(=O)C3(CC3)N=C2c2ccc(-c3ccc4c(cnn4CC4CC4)c3)cc2)C1 [compound 804] = > 10 µM
• O=C(C1CC1)N1CC[C@@H](CN2C(=O)C3(CCCC3)N=C2c2ccc(-c3ccc(-c4nn[nH]n4)cc3)cc2)C1 [compound 91] = > 10 µM

* * *

Overview of recorded IC50 for various molecules
- target.under.test: hFASN enzyme (full length) (Homo sapiens)
- Construct: 10 μL hFASN enzyme (full length, 300 ng, purified in house); made in house
- assay.method.text: Fatty Acid Synthase (FASN) inhibition scintillation proximity assay
- Format: biochemical
- protocol.conditions: read-out: Human FASN pIC50 (converted)
quantity.measured: IC50

* O=C(C1CC1)N1CCC[C@H](CN2C(=O)C3(CC3)N=C2c2ccc(-c3ccc4sccc4c3)cc2)C1 | > 10 µM
* CC(C)(O)c1ccc(-c2ccc(C3=NC4(CC4)C(=O)N3CC3CN(C(=O)C4CC4)C3)cc2)cn1 | > 10 µM
* Cn1ncc2cc(-c3ccc(C4=NC5(CCN(S(C)(=O)=O)CC5)C(=O)N4CC4CN(C(=O)C5CC5)C4)cc3)ccc21 | ~7.59 µM

* * *

- target.under.test: hFASN enzyme (full length) (Homo sapiens, UniProt P49327)
- Construct: 10 μL hFASN enzyme (full length, 300 ng, purified in house); made in house
- assay.method.text: Fatty Acid Synthase (FASN) inhibition scintillation proximity assay
- Assay type: biochemical
- protocol.conditions: read-out: Human FASN % inhibition @ 10 μM, 10 μM test compound
Catalogue of inhibition at 10 µM values
quantity.measured: inhibition at 10 µM (%)

* O=C(C1CC1)N1CC(CN2C(=O)C3(CC3)N=C2c2ccc(-c3nc4ccc(F)cc4s3)cc2F)C1 | 104
* CS(=O)(=O)Nc1cccc(-c2ccc(C3=NC4(CCCC4)C(=O)N3C[C@@H]3CCN(C(=O)C4CC4)C3)cc2)c1 | 89.2
* CC(O)C(=O)N1CC(CN2C(=O)C3(CCOCC3)N=C2c2ccc(-c3ccc4c(cnn4C)c3)cc2)C1 (stereo not shown) | 55
* O=C(C1CC1)N1CC[C@@H](CN2C(=O)C3(CC3)N=C2c2ccc(-c3cccc4ncccc34)cc2)C1 | 102
* Cn1ncc2cc(-c3ccc(C4=NC5(CC5)C(=O)N4CC4CN(C(=O)C5(O)CC5)C4)c(F)c3)ccc21 | 87
* N#Cc1ccc(-c2ccc(C3=NC4(CC4)C(=O)N3CC3CN(C(=O)C4CC4)C3)cc2)cc1 | 92.6
* O=C(C1CC1)N1CC[C@@H](CN2C(=O)C3(CCNCC3)N=C2c2ccc(-c3ccc4cnccc4c3)cc2)C1 | 110
* Cn1ncc2ccc(-c3ccc(C4=NC5(CC5)C(=O)N4C[C@@H]4CCN(C(=O)C5CC5)C4)cc3)cc21 | 100
* O=C(C1CC1)N1CC[C@@H](CN2C(=O)C3(CC3)N=C2c2ccc(-c3ccc4cnc(F)cc4c3)cc2)C1 | 99
* O=C(C1CC1)N1CC(CN2C(=O)C3(CCN(CCO)CC3)N=C2c2ccc(-c3ccc4[nH]ccc4c3)cc2)C1 | 104
* COC(=O)N1CC(CN2C(=O)C3(CCOCC3)N=C2c2ccc(-c3ccc4c(cnn4C)c3)cc2)C1 | 5
* COc1ccc2cc(-c3ccc(C4=NC5(CC5)C(=O)N4CC4CN(C(=O)C5CC5)C4)c(F)c3)ccc2c1 | 95
* Cc1cc(-c2cccc(NS(=O)(=O)C3CC3)c2)ccc1C1=NC2(CC2)C(=O)N1C[C@@H]1CCN(C(=O)C2CC2)C1 | 102
* O=C(C1CC1)N1CC[C@@H](CN2C(=O)C3(CC3)N=C2c2ccc(-c3ccc(-c4cccnc4)cc3)cc2)C1 | 112
* Cc1ccc2nc(-c3ccc(C4=NC5(CC5)C(=O)N4CC4CN(C(=O)C5CC5)C4)c(F)c3)sc2c1 | 102
* O=C(C1CC1)N1CC[C@@H](CN2C(=O)C3(CCCC3)N=C2c2ccc(-c3cccnc3)cc2)C1 | 74.6
* COc1ccc(-c2ccc(C3=NC4(CCCC4)C(=O)N3C[C@@H]3CCN(C(=O)C4CC4)C3)cc2)cc1 | 97.9
* Cc1cc(-c2ccc3nn(C)c(C#N)c3c2)ccc1C1=NC2(CC2)C(=O)N1CC1CN(C(=O)C2CC2)C1 | 87
* O=C(C1CC1)N1CC(CN2C(=O)C3(CCOCC3)N=C2c2ccc(-c3ccc4occc4c3)cc2)C1 | 75

Numbers sourced from patent US10077261B2.
